target_system: T1, human GIP receptor (human, UniProt P48546 22-466)
T1 sequence (looked up): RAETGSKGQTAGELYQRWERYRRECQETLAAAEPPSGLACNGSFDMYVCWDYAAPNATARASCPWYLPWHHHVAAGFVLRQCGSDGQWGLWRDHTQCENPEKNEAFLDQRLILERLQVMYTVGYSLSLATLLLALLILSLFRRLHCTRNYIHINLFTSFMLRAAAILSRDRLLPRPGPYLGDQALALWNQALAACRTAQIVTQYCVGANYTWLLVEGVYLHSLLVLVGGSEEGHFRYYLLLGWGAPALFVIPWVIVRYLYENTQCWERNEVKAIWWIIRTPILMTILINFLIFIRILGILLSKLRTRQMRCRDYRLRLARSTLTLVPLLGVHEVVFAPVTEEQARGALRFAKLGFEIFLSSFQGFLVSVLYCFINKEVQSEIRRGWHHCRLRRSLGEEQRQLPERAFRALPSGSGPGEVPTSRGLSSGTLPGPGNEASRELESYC
assay_notes: cell-based or functional assay
*1 amine or outer side, *2 acyl side, *3 side chain or, on linkers, in order; H or OH if unused. Where no end group is shown, it is not given here. Side-chain parts run from the residue outwards. [ ]: non-standard residue; d: D form. The star is where a group is joined. C20 diacid = O=C(O)CCCCCCCCCCCCCCCCCCC(=O)*; γGlu = O=C(O)[C@H](CCC(=O)[*:2])N[*:1]; TRX = not defined here; Aib = CC(C)(N)C(=O)O
assay_endpoint: EC50, CreLuc reporter, 100% hP (nM)
Quick note: give the figure in nM, leave out the unit.

What value of EC50, CreLuc reporter, 100% hP has been recorded for this entry: YXEGTFTSDYSIXLDRQAQXAFVRHLINKXTRQRY (Aib at 2, 13, 20, 30; Lys29 epsilon-amino: C18DA-gGlu-gGlu-gGlu-gGlu-gGlu-gGlu-eLys; C-terminal amide) [Compound 147]
5

// returns reported EC50, CreLuc reporter, 100% hP for input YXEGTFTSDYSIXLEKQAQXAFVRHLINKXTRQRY (Aib at 2, 13, 20, 30; Lys29 epsilon-amino: C18DA-gGlu-gGlu-gGlu-gGlu-gGlu-OEG; C-terminal amide) [Compound 140]
8

What EC50, CreLuc reporter, 100% hP value was documented for this binder, Y[Aib]EGTFTSDYSI[Aib]LEKQAQ[Aib]AFVRHLINK([γGlu-γGlu-γGlu-γGlu-γGlu-γGlu-TRX-C20 diacid])[Aib]TRQRY-NH2 (reading uncertain) [Compound 133] ?
3.4
